Reference source: paper PMC6271228

System: M. kansasii 6509/96 (clinically isolated)
Assay: microbe, parasite or virus in culture
Assay type: cell-based
Details: Mycobacterium kansasii, 504 h; 21 d, 37 °C; read-out: MIC M. kansasii 6509/96 21 d
Could you please report measured MIC for the items listed next?
Give bare numbers, in µM.

Reference set, count: 5
| compound | unit_info | MIC |
| --- | --- | --- |
| Nc1ccc(C(=O)O)c(O)c1 [PAS, para-aminosalicylic acid, reference compound] | µM | 500 |
| CCOP(=S)(OCC)Oc1ccc(Cl)cc1C(=O)Nc1cccc(F)c1 | µM | 500 |
| CCOP(=S)(OCC)Oc1ccc(Br)cc1C(=O)Nc1cccc(F)c1 | µM | 250 |
| CCOP(=S)(OCC)Oc1ccc(Cl)cc1C(=O)Nc1ccc(Cl)cc1 | µM | 125 |
| CCOP(=S)(OCC)Oc1ccc(Cl)cc1C(=O)Nc1ccc(F)cc1 | µM | 500 |

I would be grateful if you could provide MIC for each of the following entries.
1. CCOP(=S)(OCC)Oc1cc(Cl)ccc1C(=O)Nc1cccc(Br)c1
2. CCOP(=S)(OCC)Oc1ccc(Br)cc1C(=O)Nc1ccc(C(F)(F)F)cc1
3. CCOP(=S)(OCC)Oc1ccc(Br)cc1C(=O)Nc1cccc(C(F)(F)F)c1

Ans.
[250, 125, 125]

###

Molecular target: AChE from electric eel (Electrophorus electricus)
Sequence (O42275 24-633): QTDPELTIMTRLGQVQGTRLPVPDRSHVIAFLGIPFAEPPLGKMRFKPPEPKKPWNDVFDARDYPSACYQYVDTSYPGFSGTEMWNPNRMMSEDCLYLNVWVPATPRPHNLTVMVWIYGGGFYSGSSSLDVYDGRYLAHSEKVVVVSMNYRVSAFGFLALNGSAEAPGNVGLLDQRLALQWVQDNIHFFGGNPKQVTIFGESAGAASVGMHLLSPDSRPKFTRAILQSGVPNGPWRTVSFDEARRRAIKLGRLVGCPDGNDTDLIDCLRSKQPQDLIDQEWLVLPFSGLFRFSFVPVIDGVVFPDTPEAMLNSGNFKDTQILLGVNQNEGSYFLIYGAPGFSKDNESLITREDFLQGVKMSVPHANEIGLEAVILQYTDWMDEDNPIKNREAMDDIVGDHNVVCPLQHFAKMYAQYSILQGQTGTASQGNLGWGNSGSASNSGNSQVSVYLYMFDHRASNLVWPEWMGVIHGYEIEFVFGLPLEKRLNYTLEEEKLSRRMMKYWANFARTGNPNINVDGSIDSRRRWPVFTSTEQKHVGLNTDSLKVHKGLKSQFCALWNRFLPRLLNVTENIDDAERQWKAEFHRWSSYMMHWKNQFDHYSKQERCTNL
measured_parameter: pIC50
One number for each entry, as −log10 of the molar value.

Solved entries:
| mol_smiles | pIC50 |
| --- | --- |
| CCOP(=S)(OCC)Oc1ccc(Br)cc1C(=O)Nc1cccc(Cl)c1 | 4.90 |
| CCOP(=S)(OCC)Oc1cc(Cl)ccc1C(=O)Nc1ccc(F)cc1 | 4.94 |
| CCOP(=S)(OCC)Oc1ccc(Br)cc1C(=O)Nc1ccc(F)cc1 | 4.91 |
| CCOP(=S)(OCC)Oc1cc(Cl)ccc1C(=O)Nc1ccc(Cl)cc1 | 4.97 |
| CCOP(=S)(OCC)Oc1ccc(Cl)cc1C(=O)Nc1cccc(Cl)c1 | 5.00 |

Please state, for each entry, its recorded pIC50.
1. CCOP(=S)(OCC)Oc1ccc(Cl)cc1C(=O)Nc1cccc(C(F)(F)F)c1
2. CCOP(=S)(OCC)Oc1ccc(Br)cc1C(=O)Nc1ccc(Cl)cc1
3. CCOP(=S)(OCC)Oc1ccc(Br)cc1C(=O)Nc1ccc(Br)cc1

Ans.
1. 4.92
2. 4.89
3. 4.97

Batch: pIC50 for all items listed.
1. CCOP(=S)(OCC)Oc1ccc(Cl)cc1C(=O)Nc1ccc(Cl)c(Cl)c1
2. CCOP(=S)(OCC)Oc1ccc(Br)cc1C(=O)Nc1cccc(Br)c1
3. CCOP(=S)(OCC)Oc1ccc(Cl)cc1C(=O)Nc1cccc(F)c1
4. CCOP(=S)(OCC)Oc1ccc(Cl)cc1C(=O)Nc1ccc(F)cc1
5. CCOP(=S)(OCC)Oc1ccc(Cl)cc1C(=O)Nc1ccc(Cl)cc1
6. CCOP(=S)(OCC)Oc1ccc(Cl)cc1C(=O)Nc1ccc(C(F)(F)F)cc1

Ans.
[5.03, 4.95, 5.00, 4.87, 5.01, 5.01]

Could you report pIC50 for every entry in the following list?
1. CCOP(=S)(OCC)Oc1cc(Cl)ccc1C(=O)Nc1cccc(Br)c1
2. CCOP(=S)(OCC)Oc1ccc(Br)cc1C(=O)Nc1cccc(F)c1
3. CCOP(=S)(OCC)Oc1cc(Cl)ccc1C(=O)Nc1ccc(C(F)(F)F)cc1

Ans.
5.00
4.90
5.04
